Procedure Details: Cytotoxicity CC50 (Table 1)
Type: cell-based, human
Cond: human, MRC5 cells
Overview of recorded CC50 for various compounds

Compound | Relation Operator | CC50, nM
Nc1ncnc2c1c([N+](=O)[O-])cn2[C@@H]1O[C@H](CO)[C@@H](O)[C@H]1O | = | 330
N#Cc1cn([C@@H]2O[C@H](CO)[C@@H](O)[C@H]2O)c2ncnc(N)c12 | = | 590
Nc1ncnc2c1c(CO)cn2[C@@H]1O[C@H](CO)[C@@H](O)[C@H]1O [HUP1108, 5-hydroxymethyltubercidin] | > | 50000

###

Test system: MRC5 cells
Procedure Details: Cytotoxicity CC50 (Table 1)
Format: cell-based, human
Measurement Type: CC50

Compound | Measured Value
N#C[C@@]1(c2ccc3c(N)ncnn23)O[C@H](CO)[C@@H](O)[C@H]1O [GS-441524, reference compound] | > 50 µM
